Value source: PubChem BioAssay (NCI)

# Tested on: HL-60(TB) leukemia
# test.description: NCI tumour cell line growth inhibition, 48 h; in the data active means GI50 below about 0.43 µM; inactive means the rest
Give your call using only these classes: active, inactive

compound	category.label
Cc1[nH]c(/C=C2\C(=O)Nc3ccccc32)c(C)c1CCC(=O)O	inactive
O=C(CSC1CCc2ccccc21)N/N=C/c1ccccc1O (configuration not stated)	inactive
O=C1NC(=O)C(c2cccc([N+](=O)[O-])c2)=C1Nc1cc(Cl)c(O)c(Cl)c1	inactive
CC(=O)[O][Ga]([Br])[O]C(C)=O	inactive
CCOC(=O)c1c(NC(=O)c2cccc(C(F)(F)F)c2)sc2c(CN(C)C)c(O)ccc12	inactive
COc1ccc(-c2ccc(-c3ccc(C(=N)N)s3)s2)cc1	active

Per the assay record, what outcome was assigned to CN(CCO)c1ccc(N2Cc3ccccc3OC3=C2C(=O)c2c(O)ccc(O)c2C3=O)cn1 ? active

Per the assay record, what outcome was assigned to O[C@H](c1cc(C(F)(F)F)nc2c(C(F)(F)F)cccc12)[C@@H]1CCCCN1 ? inactive

Per the assay record, what outcome was assigned to N#Cc1c(N/N=C/c2ccc(Cl)cc2Cl)nc(N)nc1N1CCCC1 ? inactive

Per the assay record, what outcome was assigned to COc1ccc(-n2c(C)cc(-c3ccccc3)c2C)cc1 ? inactive

Per the assay record, what outcome was assigned to O=C1NC(=NCCc2cccc(Cl)c2)S/C1=C\c1ccc2ncccc2c1 ? inactive

Per the assay record, what outcome was assigned to C1=C\COCc2cc(ccc2OCCN2CCCC2)Nc2nccc(n2)-c2cccc(c2)COC/1 ? inactive

----------
# System: LOX IMVI melanoma
# test.description: NCI tumour cell line growth inhibition, 48 h
endpoint: GI50

Recorded GI50, per entry:
compound	endpoint	observed.value
CN1C(=O)/C(=C/c2c(Cl)n(C)c3ccccc23)c2ccccc21	GI50	4.79 µM
CCOC(=O)c1c(NC(=O)c2cccc(C(F)(F)F)c2)sc2c(CN(C)C)c(O)ccc12	GI50	2.7 µM
CCN1C(=O)N(CC)C2C1NN=c1s/c(=C3\C(=O)N(CC(C)(C)C)c4ccccc43)c(=O)n12 (stereo not given)	GI50	3.38 µM
CCN(Cc1ccccc1C)c1ccc(CO)c(Cl)c1	GI50	17.6 µM

# next compound below
Indicate its recorded GI50; the compound in question is O=C(CSC1CCc2ccccc21)N/N=C/c1ccccc1O (stereo not given) 2.37 µM

----------
Here, each record is paired with measured TGI data.
# Tested on: 786-0 renal
# test.description: NCI tumour cell line growth inhibition, 48 h

Recorded TGI, per entry:
compound	TGI
Cc1nn(C(=O)c2ccc(Cl)cc2)c2c1C(/C=C/c1ccccc1)SC(N)=N2 (stereo not given)	> 10 µM
CC(=O)N(CCc1ccccc1)C(C#N)c1ccccc1 (stereo not given)	> 100 µM
Cc1c(/C=N/NC(=O)c2ccc(Cl)cc2)c(=O)n(-c2ccccc2)n1C	> 100 µM
COC(=O)/C=C1\CCC(C)O1 (stereo not given)	> 100 µM

# next compound below
Please report the measured TGI for CC1CC[C@@]2(OC1)OC1C[C@H]3[C@@H]4CC[C@H]5CC(OC6OC(CO)C(O)C(OC7OC(CO)C(OC8OC(CO)C(O)C(OC9OC(CO)C(O)C(O)C9O)C8OC8OC(CO)C(O)C(O)C8O)C(O)C7O)C6O)[C@H](O)CC5(C)[C@H]4CCC3(C)C1[C@@H]2C (stereo not given in full) tested on 786-0 renal. 6.76 µM

----------
Here, each record is paired with measured TGI data.
# Test system: UO-31 renal
# test.description: NCI tumour cell line growth inhibition, 48 h

Recorded TGI, per entry:
compound	test.system	endpoint	observed.value
O=C(O)CC(NC(=O)CP(=O)(O)O)C(=O)O (stereo not given)	UO-31 renal	TGI	> 10000 µM
N=C(N)c1ccc2nc(-c3cc(CC(=O)N[C@@H](CC(=O)O)C(=O)O)cc(-c4cc(S(N)(=O)=O)ccc4O)c3O)[nH]c2c1	UO-31 renal	TGI	> 100 µM
CCOC(=O)CO/N=C1/C(c2c(O)[nH]c3ccccc23)=Nc2ccccc21	UO-31 renal	TGI	> 100 µM
c1ccc(NN=C(c2ccccn2)c2ccccn2)nc1	UO-31 renal	TGI	0.513 µM

# next compound below
Indicate its recorded TGI; the compound in question is N#Cc1c(N/N=C/c2ccc(Cl)cc2Cl)nc(N)nc1N1CCCC1 > 100 µM

----------
# System: NCI/ADR-RES ovarian
# test.description: NCI tumour cell line growth inhibition, 48 h; in the data active means GI50 below about 0.43 µM; inactive means the rest
Give your call using only these classes: active, inactive

Per the assay record, what outcome was assigned to C=C1C(=O)O[C@H]2[C@H]1CC/C(COC(=O)/C=C\C(=O)NCc1ccc(Cn3c(=O)sn(CCCC)c3=O)cc1)=C\CC[C@@]1(C)O[C@@H]21 ? inactive

Per the assay record, what outcome was assigned to COCC1(CO)C(=O)C2CCN1CC2 (stereo not drawn) ? inactive

Per the assay record, what outcome was assigned to COc1cc2c3c(n(CCCOC(=O)C(F)(F)F)c(=O)c2cc1OC)-c1cc2c(cc1C3=O)OCO2 ? active

Per the assay record, what outcome was assigned to CSc1ccc2c(c1)C(=O)c1c-2n(CCCBr)c(=O)c2cc([N+](=O)[O-])ccc12 ? inactive

Per the assay record, what outcome was assigned to NC(=O)c1cc(S(=O)(=O)Nc2nnc(-c3ccccc3)c(-c3ccccc3)n2)c(SCc2ccccc2)cc1Cl ? inactive

Per the assay record, what outcome was assigned to N=C(N)c1ccc2nc(-c3cc(CC(=O)N[C@@H](CC(=O)O)C(=O)O)cc(-c4cc(S(N)(=O)=O)ccc4O)c3O)[nH]c2c1 ? inactive

Per the assay record, what outcome was assigned to Cc1cc(C)c(/C=C2\C(=O)Nc3ccc(NC(=O)CCCCCCC(=O)NO)cc32)[nH]1 ? inactive

Per the assay record, what outcome was assigned to COc1ccc(O)c(C(=O)c2ccc(C(=O)N[C@H]3CCCNC[C@@H]3NC(=O)c3ccncc3)cc2)c1F ? inactive

----------
# Test system: MCF7 breast
# test.description: NCI tumour cell line growth inhibition, 48 h
endpoint: TGI

compound	TGI
COc1ccc(O)c(C(=O)c2ccc(C(=O)N[C@H]3CCCNC[C@@H]3NC(=O)c3ccncc3)cc2)c1F	> 25 µM
COC(=O)c1ccccc1Nc1nc(-c2cccs2)nc2cc(OC)c(OC)cc12	> 100 µM
COC(=O)C1(C(=O)OC)C/C(C)=C(/C)SCCCS1	> 100 µM
COC1=CC2C(c3cc4ccccc4n3S(=O)(=O)c3ccccc3)CC1CN2C(=O)OCc1ccccc1 (centres undefined)	> 100 µM
CCOC(=O)C1(C/C=C/CBr)CCc2ccccc2C1=O (centres undefined)	33.5 µM
Cc1c(O)c(OC2OC(CO)C(O)C(O)C2O)cc2c1CC[C@@H]1C2(C)C(=O)C[C@]2(C)[C@@H]([C@@](C)(O)C(=O)CCC(C)(C)O)[C@H](O)C[C@@]12C (some centres undefined)	> 100 µM

Indicate its recorded TGI; the compound in question is CC(=O)O[C@H]1CC[C@@]2(C)C(=CC[C@@H]3[C@@H]2CC[C@]2(C)NC(=O)/C(=C\c4ccccc4)C[C@@H]32)C1 59.8 µM

Indicate its recorded TGI; the compound in question is COc1cc(C(C)=O)cc(C(=O)N(C(C)C)C(C)C)c1[Si](C)(C)C > 100 µM

Indicate its recorded TGI; the compound in question is N#CC(OC1OC(COC2OC(CO)C(O)C(O)C2O)C(O)C(O)C1O)c1ccccc1 (centres undefined) > 225 µM

----------
Here, each record is paired with measured TGI data.
# Test system: SF-295 CNS
# test.description: NCI tumour cell line growth inhibition, 48 h

compound	TGI
COc1ccc(-c2coc3c4c(ccc3c2=O)OCO4)cc1OC	> 100 µM
Cc1c(/C=N/NC(=O)c2ccc(Cl)cc2)c(=O)n(-c2ccccc2)n1C	> 100 µM
Cn1cc(C2=C(c3cccc(Br)c3)C(=O)NC2=O)c2ccccc21	> 25 µM

Indicate its recorded TGI; the compound in question is CC1=CCC(C)=Nc2nc3ccccc3n21 > 100 µM

Indicate its recorded TGI; the compound in question is CCCCCCCCCCCCC/C=C/[C@@H](O)[C@H](COC1OC(CO)C(OC2OC(CO)C(O)C(OC3(C(=O)O)CC(O)C(NC(C)=O)C(C(O)C(O)CO)O3)C2O)C(O)C1O)N=[N+]=[N-] (stereo not given in full) 88 µM

Indicate its recorded TGI; the compound in question is Cc1cc(S(=O)(=O)O)c(NC(=O)C(=O)Cc2cc(=O)oc3cc(O)ccc23)cc1Cl > 100 µM

Indicate its recorded TGI; the compound in question is c1ccc(NN=C(c2ccccn2)c2ccccn2)nc1 > 100 µM

Indicate its recorded TGI; the compound in question is O=CN1CCN(CC(O)CN2CCCCC2)CC1 (stereo not given) > 100 µM

Indicate its recorded TGI; the compound in question is COCC1(CO)C(=O)C2CCN1CC2 (stereo not given) > 100 µM

Indicate its recorded TGI; the compound in question is Cc1nc2ccc(NC(=S)Nc3ccccc3)cc2c(=O)n1-c1ccccc1 > 100 µM

Indicate its recorded TGI; the compound in question is CC(C)(C)OC(=O)NC(Cc1ccc(OC(C)(C)C)cc1)C(=O)N[C@H]1CCC[C@H]1C(=O)NC(Cc1ccccc1)C(=O)N1CCCC1C(N)=O (stereo not given in full) > 100 µM

Indicate its recorded TGI; the compound in question is CC1COC(C)(C)P(=O)(c2ccccc2)C1 (stereo not given) > 100 µM

Indicate its recorded TGI; the compound in question is COc1ccc(-c2csc(Cc3nc4ccccc4c(=O)n3-c3ccc(Cl)cc3)n2)cc1 > 100 µM

Indicate its recorded TGI; the compound in question is CC(C)C(=O)NS(=O)(=O)c1ccccc1 > 100 µM

Indicate its recorded TGI; the compound in question is CC(O)CCCCC(O)CCC[C@H](O)[C@H]1CCC([C@H]2CCC([C@@H](O)CCCCCCCCCCCCC3=C[C@H](C)OC3=O)O2)O1 (stereo not given in full) 18.7 µM

Indicate its recorded TGI; the compound in question is CC1=NC(=Cc2cc(Br)cc(Br)c2)C(=O)N1n1c(-c2ccccc2)nc2ccccc2c1=O > 100 µM
